Assay: Cytotoxicity against human Raji cells assessed as cell viability at 1000 molar ratio after 48 hrs by trypan blue assay
Assay type: cell-based
Conditions: read-out: Activity
Could you please report measured viability at 48 h, 1000 molar ratio for the items listed next?
Answers are plain numbers, in %.

For orientation, consider the following solved cases.
CC(C)=CCC[C@@H](C)[C@@H]1CC[C@]2(C)C3=CC[C@H]4C(C)(C)[C@@H](O)CC[C@]4(C)C3=CC[C@@]12C [ANTIQUOL C] ... 70
CC(C)=CCC[C@@H](C)[C@@H]1CC[C@]2(C)C3=C(CC[C@@]12C)[C@@]1(C)CC[C@H](O)C(C)(C)[C@@H]1CC3 [EUPHOL] ... 70
CC(C)=CCC[C@]1(C)CC[C@]2(C)C3=CC[C@H]4C(C)(C)[C@@H](O)CC[C@]4(C)[C@H]3CC[C@@]2(C)C1 ... 70

Would you mind listing viability at 48 h, 1000 molar ratio for each of the following compounds?
1. CC(C)=CCC/C(C)=C/CC/C(C)=C/CC/C=C(\C)CC[C@@H]1C(C)=CC[C@H](O)C1(C)C [CAMELLIOL C]
2. CC(C)=CCC[C@@H](C)[C@@H]1CC[C@]2(C)[C@H]3CCC(=C(C)C)[C@@H](CCCO)[C@]3(C)CC[C@@]12C [ISOHELIANOL]
3. C=C(CC[C@H](C)[C@@H]1CC[C@]2(C)C3=C(CC[C@@]12C)[C@@]1(C)CC[C@H](O)C(C)(C)[C@@H]1CC3)C(C)C [EUPHORBOL]

70
70
70
